For each record, write down the corresponding pIC50.
- testSystem: UniProt:Q12866
- Sequence (Q12866 21-999 limits assumed): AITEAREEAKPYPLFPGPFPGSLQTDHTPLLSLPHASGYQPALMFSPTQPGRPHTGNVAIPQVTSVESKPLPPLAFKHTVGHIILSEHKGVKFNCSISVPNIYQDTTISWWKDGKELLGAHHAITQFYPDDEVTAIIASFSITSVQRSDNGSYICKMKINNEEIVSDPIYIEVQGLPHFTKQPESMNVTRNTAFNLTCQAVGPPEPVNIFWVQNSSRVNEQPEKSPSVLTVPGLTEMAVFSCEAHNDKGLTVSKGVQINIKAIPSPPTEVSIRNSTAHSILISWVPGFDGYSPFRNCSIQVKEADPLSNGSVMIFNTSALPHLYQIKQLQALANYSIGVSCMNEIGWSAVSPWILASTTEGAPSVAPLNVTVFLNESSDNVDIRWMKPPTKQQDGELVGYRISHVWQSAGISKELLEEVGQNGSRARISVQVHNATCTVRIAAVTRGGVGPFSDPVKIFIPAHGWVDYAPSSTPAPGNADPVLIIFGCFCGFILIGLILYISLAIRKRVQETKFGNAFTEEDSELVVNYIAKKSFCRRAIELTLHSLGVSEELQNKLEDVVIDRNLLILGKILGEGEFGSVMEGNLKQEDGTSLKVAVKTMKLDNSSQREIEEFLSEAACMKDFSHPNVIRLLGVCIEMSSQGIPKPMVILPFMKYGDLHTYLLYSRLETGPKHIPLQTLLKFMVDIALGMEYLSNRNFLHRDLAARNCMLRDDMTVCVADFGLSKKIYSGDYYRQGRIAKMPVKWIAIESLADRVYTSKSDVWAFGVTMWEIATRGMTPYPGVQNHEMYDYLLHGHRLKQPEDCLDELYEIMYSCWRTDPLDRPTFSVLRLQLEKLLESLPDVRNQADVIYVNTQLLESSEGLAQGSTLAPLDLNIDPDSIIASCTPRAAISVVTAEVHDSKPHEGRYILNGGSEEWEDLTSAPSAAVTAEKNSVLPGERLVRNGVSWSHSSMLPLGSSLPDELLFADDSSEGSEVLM
One number for each entry, as −log10 of the molar value.

Request: Respond only with pIC50 recorded for CCCCNc1ncc(-c2ccc(C=C3CCN(C(C)C)CC3)cn2)c(N[C@H]2CC[C@H](O)CC2)n1 [UNC4340A]
Response: 8.96

Please examine the following record next.
Request: Respond only with pIC50 recorded for CCCCNc1ncc(-c2ccc(CC3CCN(C)CC3)cn2)c(N[C@H]2CC[C@H](O)CC2)n1 [UNC4337A]
Response: 8.36

====

- testSystem: Tyro3 (Homo sapiens (Human))
- Sequence (Q06418 41-890 limits assumed): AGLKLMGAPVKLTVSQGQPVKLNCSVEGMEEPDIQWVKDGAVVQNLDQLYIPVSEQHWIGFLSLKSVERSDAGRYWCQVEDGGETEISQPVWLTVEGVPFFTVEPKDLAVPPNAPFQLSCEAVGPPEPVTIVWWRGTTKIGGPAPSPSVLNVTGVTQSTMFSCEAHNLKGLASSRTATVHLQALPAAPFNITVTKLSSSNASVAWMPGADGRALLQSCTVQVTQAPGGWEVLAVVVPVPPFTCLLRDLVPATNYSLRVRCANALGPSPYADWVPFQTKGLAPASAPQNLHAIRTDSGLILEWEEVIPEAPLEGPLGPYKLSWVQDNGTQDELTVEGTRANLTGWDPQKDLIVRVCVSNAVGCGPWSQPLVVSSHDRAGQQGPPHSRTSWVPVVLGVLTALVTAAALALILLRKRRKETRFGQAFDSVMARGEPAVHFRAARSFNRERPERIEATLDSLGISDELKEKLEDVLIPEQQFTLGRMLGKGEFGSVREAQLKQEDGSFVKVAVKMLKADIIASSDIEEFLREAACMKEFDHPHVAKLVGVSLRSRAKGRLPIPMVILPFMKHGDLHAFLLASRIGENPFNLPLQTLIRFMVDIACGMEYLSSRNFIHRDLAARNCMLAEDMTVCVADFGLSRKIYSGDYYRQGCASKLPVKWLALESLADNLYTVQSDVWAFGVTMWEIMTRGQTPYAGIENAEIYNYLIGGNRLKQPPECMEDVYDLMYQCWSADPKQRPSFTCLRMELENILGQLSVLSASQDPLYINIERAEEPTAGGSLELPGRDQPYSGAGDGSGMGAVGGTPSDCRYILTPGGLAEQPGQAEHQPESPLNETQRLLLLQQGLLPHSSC
- measurementContext: read-out: IC50 Tyro3
Simple rule here: IC50 less than 200 nM is 1, otherwise 0.

Solved entries (count: 10):
Request: Determine whether this compound shows IC50 lower than 200 nM (ties excluded): CCCCNc1ncc(C(=O)NCC2CCN(C(C)C)CC2)c(N[C@H]2CC[C@H](O)CC2)n1 [UNC4289A]
Response: 1

Request: Determine whether this compound shows IC50 lower than 200 nM (ties excluded): CCCCNc1ncc(-c2cnc(N)cn2)c(N[C@H]2CC[C@H](O)CC2)n1 [UNC3041A]
Response: 0

Request: Determine whether this compound shows IC50 lower than 200 nM (ties excluded): CCCCNc1ncc(C(=O)NCc2cccs2)c(N[C@H]2CC[C@H](O)CC2)n1 [UNC2762A]
Response: 1

Request: Determine whether this compound shows IC50 lower than 200 nM (ties excluded): CCCCNc1ncc(-c2ccc(C(=O)O)nn2)c(N[C@H]2CC[C@H](O)CC2)n1 [UNC3042A]
Response: 1

Request: Determine whether this compound shows IC50 lower than 200 nM (ties excluded): CCCCNc1ncc(-c2ccc(CNC34CC5CC(CC(C5)C3)C4)cn2)c(N[C@H]2CC[C@H](O)CC2)n1 [UNC4166A]
Response: 1

Request: Determine whether this compound shows IC50 lower than 200 nM (ties excluded): CCCCNc1ncc(-c2cc(Nc3cccc(-c4ccccc4)c3)ncn2)c(N[C@H]2CC[C@H](O)CC2)n1 [UNC4353A]
Response: 0

Request: Determine whether this compound shows IC50 lower than 200 nM (ties excluded): CCCCNc1ncc(C(=O)NCC2CCN(C3CCCCC3)CC2)c(N[C@H]2CC[C@H](O)CC2)n1 [UNC4302A]
Response: 1

Request: Determine whether this compound shows IC50 lower than 200 nM (ties excluded): CCCCNc1ncc(-c2ccc(NC(=O)C3CCC3)cn2)c(NC2CCC(O)CC2)n1 (stereo not shown) [UNC2790A]
Response: 0

Request: Determine whether this compound shows IC50 lower than 200 nM (ties excluded): CCCCNc1ncc(-c2cc(Nc3cccc(C(C)(C)C)c3)ncn2)c(N[C@H]2CC[C@H](O)CC2)n1 [UNC4333A]
Response: 0

Request: Determine whether this compound shows IC50 lower than 200 nM (ties excluded): CCCCNc1ncc(C(=O)NC2CCN(CC3CCCCC3)CC2)c(N[C@H]2CC[C@H](O)CC2)n1 [UNC2877A]
Response: 0

Further cases:
Request: Determine whether this compound shows IC50 lower than 200 nM (ties excluded): CCCCNc1ncc(C(=O)NCc2ccc(Cn3ccnc3)cc2)c(N[C@H]2CC[C@H](O)CC2)n1 [UNC3144A]
Response: 0

Request: Determine whether this compound shows IC50 lower than 200 nM (ties excluded): CCCCNc1ncc(-c2ccc(OC)nn2)c(N[C@H]2CC[C@H](O)CC2)n1 [UNC3049A]
Response: 0

Request: Determine whether this compound shows IC50 lower than 200 nM (ties excluded): CCCCNc1ncc(C(=O)NCc2cccc3ccccc23)c(N[C@H]2CC[C@H](O)CC2)n1 [UNC2763A]
Response: 0

Request: Determine whether this compound shows IC50 lower than 200 nM (ties excluded): CCCCNc1ncc(-c2ccc(CC3CCNCC3)cn2)c(N[C@H]2CC[C@H](O)CC2)n1 [UNC4335A]
Response: 1

Request: Determine whether this compound shows IC50 lower than 200 nM (ties excluded): CCCCNc1ncc(C(=O)NCc2ccc(-c3ccc(C#N)cc3)nc2)c(N[C@H]2CC[C@H](O)CC2)n1 [UNC4239A]
Response: 0

====

- testSystem: Axl (Homo sapiens (Human), UniProt P30530)
- Sequence (P30530 26-894 limits assumed): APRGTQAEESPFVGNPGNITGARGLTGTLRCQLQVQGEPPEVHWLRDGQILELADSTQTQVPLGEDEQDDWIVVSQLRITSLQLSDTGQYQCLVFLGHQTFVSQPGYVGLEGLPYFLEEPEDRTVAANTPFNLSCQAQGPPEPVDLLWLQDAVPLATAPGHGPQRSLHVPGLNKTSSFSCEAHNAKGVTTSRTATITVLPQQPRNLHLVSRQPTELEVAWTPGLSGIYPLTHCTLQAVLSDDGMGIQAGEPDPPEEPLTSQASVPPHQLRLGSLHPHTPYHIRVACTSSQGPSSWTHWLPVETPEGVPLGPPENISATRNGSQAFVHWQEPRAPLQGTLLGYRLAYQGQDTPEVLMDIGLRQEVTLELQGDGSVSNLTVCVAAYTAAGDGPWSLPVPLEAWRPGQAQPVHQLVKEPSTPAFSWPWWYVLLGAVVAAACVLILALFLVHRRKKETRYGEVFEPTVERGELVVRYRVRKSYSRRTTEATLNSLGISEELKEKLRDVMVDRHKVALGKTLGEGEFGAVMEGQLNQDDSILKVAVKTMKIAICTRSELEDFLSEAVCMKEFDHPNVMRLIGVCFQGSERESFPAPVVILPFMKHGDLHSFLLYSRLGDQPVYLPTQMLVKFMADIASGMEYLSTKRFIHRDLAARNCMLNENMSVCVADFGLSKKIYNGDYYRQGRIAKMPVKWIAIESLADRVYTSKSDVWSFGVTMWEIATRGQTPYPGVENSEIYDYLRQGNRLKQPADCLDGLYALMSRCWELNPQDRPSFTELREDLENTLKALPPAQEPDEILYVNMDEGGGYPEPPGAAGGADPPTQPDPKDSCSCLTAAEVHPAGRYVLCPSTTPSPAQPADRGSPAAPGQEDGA
- measurementContext: read-out: IC50 Axl
For each record, write down the corresponding pIC50.
Numbers only, as −log10 of the molar value.

Solved entries (count: 5):
Request: Respond only with pIC50 recorded for CCCCNc1ncc(-c2cc(SC)nc(C)n2)c(N[C@H]2CC[C@H](O)CC2)n1 [UNC3130A]
Response: 5.96

Request: Respond only with pIC50 recorded for CCCCNc1ncc(C(=O)NCC2CCN(C3CCCCC3)CC2)c(N[C@H]2CC[C@H](O)CC2)n1 [UNC4302A]
Response: 6.53

Request: Respond only with pIC50 recorded for CCCCNc1ncc(-c2ncc(C)s2)c(N[C@H]2CC[C@H](O)CC2)n1 [UNC3140A]
Response: 6.40

Request: Respond only with pIC50 recorded for CCCCNc1ncc(-c2ccc(NC3CC3)nn2)c(N[C@H]2CC[C@H](O)CC2)n1 [UNC3069A]
Response: 6.38

Request: Respond only with pIC50 recorded for CCCCNc1ncc(C(=O)NC2CCN(CCc3ccccc3)CC2)c(N[C@H]2CC[C@H](O)CC2)n1 [UNC2800A]
Response: 6.50

For each of the items listed, what is its pIC50?
1. CCCCNc1ncc(C(=O)NCC2CCN(C(C)=O)CC2)c(N[C@H]2CC[C@H](O)CC2)n1 [UNC4288A]
2. CCCCNc1ncc(-c2ccc(NC(=O)c3ccccc3)cn2)c(NC2CCC(O)CC2)n1 (centres unmarked) [UNC2713A]
3. CCCCNc1ncc(-c2ccc(CNC3CC4CCC(C3)N4C)cn2)c(N[C@H]2CC[C@H](O)CC2)n1 (some centres unmarked) [UNC4165A]
4. CCCCNc1ncc(C(=O)NCc2cncnc2)c(N[C@H]2CC[C@H](O)CC2)n1 [UNC4307A]
5. CCCCNc1ncc(-c2ccc(CCN3CCCN(C)CC3)cn2)c(N[C@H]2CC[C@H](O)CC2)n1 [UNC4279A]
6. CCCCNc1ncc(C(=O)NCc2ccc(-n3ccnc3-c3ccccc3)cc2)c(N[C@H]2CC[C@H](O)CC2)n1 [UNC2957A]
7. CCCCNc1ncc(-c2ccc(CN3CCN[C@H](C)C3)cn2)c(NC2CCC(O)CC2)n1 (some centres unmarked) [UNC4113A]

Response:
[5.98, 6.28, 7.74, 6.33, 7.17, 6.23, 7.26]

====

- testSystem: Axl (Homo sapiens (Human))
- measurementContext: read-out: IC50 Axl
valueType: IC50 (nM)
Numbers only, in nM.

Solved entries (count: 8):
Request: Respond only with IC50 recorded for CCCCNc1ncc(-c2ccc(CN3C4CCCC3CC4)cn2)c(N[C@H]2CC[C@H](O)CC2)n1 [UNC4169A]
Response: 9.6

Request: Respond only with IC50 recorded for CCCCNc1ncc(C(=O)NCC2CCN(c3ccccc3)CC2)c(N[C@H]2CC[C@H](O)CC2)n1 [UNC4304A]
Response: 664

Request: Respond only with IC50 recorded for CCCCNc1ncc(-c2ccccn2)c(NCCCCCO)n1 [UNC2964A]
Response: 5270

Request: Respond only with IC50 recorded for CCCCNc1ncc(-c2ccc(CCCN3CCCC3)cn2)c(N[C@H]2CC[C@H](O)CC2)n1 [UNC4220A]
Response: 122

Request: Respond only with IC50 recorded for CCCCNc1ncc(C(=O)NCc2ccc3ccccc3n2)c(N[C@H]2CC[C@H](O)CC2)n1 [UNC4286A]
Response: 572

Request: Respond only with IC50 recorded for CCCCNc1ncc(C(=O)NC2CCN(Cc3cccnc3)CC2)c(N[C@H]2CC[C@H](O)CC2)n1 [UNC2802A]
Response: 408

Request: Respond only with IC50 recorded for CCCCNc1ncc(-c2ccc(CC3CCN(C(C)C)CC3)cn2)c(N[C@H]2CC[C@H](O)CC2)n1 [UNC4339A]
Response: 39

Request: Respond only with IC50 recorded for CCCCNc1ncc(-c2nccs2)c(N[C@H]2CC[C@H](O)CC2)n1 [UNC3047A]
Response: 597

For each of the items listed, what is its IC50?
1. CCCCNc1ncc(-c2ccc(-c3cccc(C(=O)O)c3)nn2)c(N[C@H]2CC[C@H](O)CC2)n1 [UNC3141A]
2. CCCC1(Nc2ncc(-c3ccc(CN4CCN(C)CC4)cn3)c(NC3CCC(O)CC3)n2)CC1 (centres unmarked) [UNC3668A]
3. CCCCNc1ncc(-c2ccc(NC(=O)C3CCC3)cn2)c(NC2CCC(O)CC2)n1 (centres unmarked) [UNC2790A]
4. CCCCNc1ncc(-c2ccc(CC3CCNCC3)cn2)c(N[C@H]2CC[C@H](O)CC2)n1 [UNC4335A]
5. CCCCNc1ncc(C(=O)NC2CCN(CC3CCCCC3)CC2)c(N[C@H]2CC[C@H](O)CC2)n1 [UNC2877A]
6. CCCCNc1ncc(-c2ccc(C3=CCN(C(C)C)CC3)cn2)c(N[C@H]2CC[C@H](O)CC2)n1 [UNC4358A]

Response:
1: 30000; 2: 5300; 3: 835; 4: 137; 5: 245; 6: 24

For each of the items listed, what is its IC50?
1. CCCCNc1ncc(-c2nc(C(N)=O)cs2)c(N[C@H]2CC[C@H](O)CC2)n1 [UNC3136A]
2. CCCCNc1ncc(C(=O)Nc2ccc(CCN3CCOCC3)cc2)c(N[C@H]2CC[C@H](O)CC2)n1 [UNC2805A]

Response:
1. 237
2. 409
